MEASURED_TARGET: human GLP-1 (Homo sapiens, UniProt P43220)
Sequence (P43220 24-463): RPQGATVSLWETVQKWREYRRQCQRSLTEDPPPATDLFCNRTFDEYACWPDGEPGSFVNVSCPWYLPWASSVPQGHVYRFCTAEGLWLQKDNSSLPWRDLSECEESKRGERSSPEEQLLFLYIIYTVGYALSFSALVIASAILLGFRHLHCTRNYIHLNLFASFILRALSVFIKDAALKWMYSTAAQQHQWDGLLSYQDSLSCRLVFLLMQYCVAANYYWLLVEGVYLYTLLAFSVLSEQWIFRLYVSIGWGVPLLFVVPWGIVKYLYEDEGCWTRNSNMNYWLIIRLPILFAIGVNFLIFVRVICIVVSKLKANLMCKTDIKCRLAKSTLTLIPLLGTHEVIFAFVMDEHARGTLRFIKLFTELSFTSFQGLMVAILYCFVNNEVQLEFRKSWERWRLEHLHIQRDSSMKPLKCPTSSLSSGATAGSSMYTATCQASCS
METHOD: h-GLP-1 activity assay (Cisbio cAMP Gs dynamic kit, HTRF)
TEST_SETTINGS: HEK293 cells with stable expression of human GLP-1, relative EC50, 10 nM human GLP-1 = 100% response
pEC50: −log10 of the molar value.
MEASURED_PARAMETER: pEC50

COMPOUND	MEASURED_PARAMETER	READOUT_VALUE
O=C(O)c1ccc2nc(CC34CCC(c5ccnc(OCc6ccc(Cl)cc6F)n5)(CC3)CO4)n(C[C@@H]3CCO3)c2c1	pEC50	< 7.00

**Q:** May I ask what pEC50 has been recorded for C[C@@]1(c2ccc(Cl)cc2F)Oc2cccc(C3=CC[C@@H](Cc4nc5ccc(C(=O)O)cc5n4C[C@@H]4CCO4)OC3)c2O1 (single isomer, unassigned) ?
**A:** > 7.70

**Q:** May I ask what pEC50 has been recorded for N#Cc1ccc(COc2nccc(C34CCC(Cc5nc6ccc(C(=O)O)cc6n5C[C@@H]5CCO5)(CC3)CC4)n2)c(F)c1 ?
**A:** < 7.00

**Q:** May I ask what pEC50 has been recorded for C[C@@]1(c2ccc(Cl)cn2)Oc2cccc(N3CC=C(Cc4nc5ccc(C(=O)O)cc5n4C[C@@H]4CCO4)CC3)c2O1 (single isomer, unassigned) ?
**A:** > 7.70

**Q:** May I ask what pEC50 has been recorded for N#Cc1ccc(COc2cccc([C@@H]3CC[C@@H](Cc4nc5ccc(C(=O)O)cc5n4C[C@@H]4CCO4)OC3)n2)c(F)c1 (single isomer, unassigned) ?
**A:** > 7.70

**Q:** May I ask what pEC50 has been recorded for N#Cc1ccc(COc2cccc(N3CCC(Oc4nc5ccc(C(=O)O)cc5n4C[C@@H]4CCO4)CC3)n2)c(F)c1 ?
**A:** < 7.00
